Measured values drawn from patent US20230263822A1 for this set.

# Test system: human Factor 11 mRNA
# EXPERIMENTAL PROTOCOL: Dose-dependent inhibition of human Factor 11 in HepG2 cells, electroporation 625-20,000 nM (Example 5)
# Type: cell-based
# MEASUREMENT CONDITIONS: 10000 nM, ~16 hours
# Experimental: The gapmers were also transfected via electroporation and their dose dependent inhibition of human Factor 11 mRNA was measured. […] After a treatment period of approximately 16 hours, RNA was isolated from the cells and human Factor 11 mRNA levels were measured by quantitative real-time PCR. […] Factor 11 mRNA levels were adjusted according to total RNA content, as measured by RIBOGREEN. […]
MEASUREMENT TYPE: percent inhibition of human Factor 11 mRNA relative to untreated control cells (%)
Express your answer in %, writing the number without its unit.

Query block: Report percent inhibition of human Factor 11 mRNA relative to untreated control cells, nothing else, for this substance: 416999 (antisense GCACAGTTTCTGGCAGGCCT; 2-13-5 gapmer chemistry, further chemistry not given here) [compound 416999]
Result block: 94

Query block: Report percent inhibition of human Factor 11 mRNA relative to untreated control cells, nothing else, for this substance: 416892 (antisense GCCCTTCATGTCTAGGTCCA; 3-14-3 chimeric gapmer, further chemistry not given here) [compound 416892]
Result block: 100

Query block: Report percent inhibition of human Factor 11 mRNA relative to untreated control cells, nothing else, for this substance: 416925 (antisense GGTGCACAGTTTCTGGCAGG; 3-14-3 gapmer chemistry, further chemistry not given here) [compound 416925]
Result block: 95

Query block: Report percent inhibition of human Factor 11 mRNA relative to untreated control cells, nothing else, for this substance: 416826 (antisense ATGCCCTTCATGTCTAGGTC; 5-10-5 gapmer, further chemistry not given here) [compound 416826]
Result block: 95

Query block: Report percent inhibition of human Factor 11 mRNA relative to untreated control cells, nothing else, for this substance: 417002 (antisense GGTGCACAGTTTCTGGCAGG; 2-13-5 gapmer chemistry, further chemistry not given here) [compound 417002]
Result block: 94
